# System: NCI/ADR-RES complex spheroid viability
# methodNotes: Anticancer human tumor NCI/ADR-RES cell line growth inhibition;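 further: spheroids exposed to compounds for 7 days; 100% = DMSO vehicle treated spheroids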
# conditionContext: second compound 3.16 µM; first compound 0.949 µM; stronger effect = lower value
# Lookup of reported viability, T/C keyed by entry
recordedEndpoint: viability, T/C (%)

* CCN(c1cc(-c2ccc(CN3CCOCC3)cc2)cc(C(=O)NCc2c(C)cc(C)[nH]c2=O)c1C)C1CCOCC1 + NC1CC1c1ccc(-c2cccc(O)c2)cc1 | 90.2
* NS(=O)(=O)OCC1CC(n2ccc3c(NC4CCc5ccccc54)ncnc32)CC1O (configuration not stated) + NC1CC1c1ccc(-c2cccc(O)c2)cc1 | 54.3
* O=C(C=Cc1cccc(S(=O)(=O)Nc2ccccc2)c1)NO + NC1CC1c1ccc(-c2cccc(O)c2)cc1 | 9.4
* CCN(c1cc(-c2ccc(CN3CCOCC3)cc2)cc(C(=O)NCc2c(C)cc(C)[nH]c2=O)c1C)C1CCOCC1 + NC1CCC(NC2CC2c2ccccc2)CC1 | 87.6
* O=C(C=Cc1cccc(S(=O)(=O)Nc2ccccc2)c1)NO + NC1CCC(NC2CC2c2ccccc2)CC1 | 8.22
* Nc1ccccc1NC(=O)c1ccc(CNC(=O)OCc2cccnc2)cc1 + NC1CCC(NC2CC2c2ccccc2)CC1 | 49.8
* COc1cc(C2c3cc4c(cc3C(OC3OC5COC(C)OC5C(O)C3O)C3COC(=O)C23)OCO4)cc(OC)c1O (configuration not stated) + NC1CCC(NC2CC2c2ccccc2)CC1 | 94.5

----------
# Tested on: NCI/ADR-RES complex spheroid viability
# methodNotes: Anticancer human tumor NCI/ADR-RES cell line growth inhibition; active = viability on the fitted dose curve at most 10% of control; inactive = the rest;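 further: spheroids exposed to compounds for 7 days; 100% = DMSO vehicle treated spheroids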
# conditionContext: second compound 10 µM; first compound 0.3 µM
Possible outcomes: active, inactive

* CCc1c2c(nc3ccc(O)cc13)-c1cc3c(c(=O)n1C2)COC(=O)[C@]3(O)CC + NC1CC1c1ccc(-c2cccc(O)c2)cc1 | active
* COc1cc(C2c3cc4c(cc3C(OC3OC5COC(C)OC5C(O)C3O)C3COC(=O)C23)OCO4)cc(OC)c1O (centres undefined) + NC1CC1c1ccc(-c2cccc(O)c2)cc1 | inactive
* Nc1ccn(C2OC(CO)C(O)C2(F)F)c(=O)n1 (centres undefined) + NC1CC1c1ccc(-c2cccc(O)c2)cc1 | active
* CCN(c1cc(-c2ccc(CN3CCOCC3)cc2)cc(C(=O)NCc2c(C)cc(C)[nH]c2=O)c1C)C1CCOCC1 + NC1CC1c1ccc(-c2cccc(O)c2)cc1 | inactive

----------
# Tested on: NCI/ADR-RES complex spheroid viability
# methodNotes: Anticancer human tumor NCI/ADR-RES cell line growth inhibition;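 further: spheroids exposed to compounds for 7 days; 100% = DMSO vehicle treated spheroids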
# conditionContext: second compound 0.1 µM; first compound 0.949 µM; stronger effect = lower value
# Excerpt: Multicellular complex tumor spheroid response to LSD1 Inhibitor Iadademstat in combination with a variety of drugs and investigational agents in selected tumor cell lines The current study was undertaken to assess response to LSD1 inhibitors in combination with standard-of-care drugs and investigational agents in solid tumor complex spheroid models as well as in the K-562 leukemia. […] Compounds. […] If the clinical Cmax for an agent had not been determined, the highest concentration tested was 10 microM. […]
recordedEndpoint: viability, T/C

• Nc1ccccc1NC(=O)c1ccc(CNC(=O)OCc2cccnc2)cc1 + NC1CCC(NC2CC2c2ccccc2)CC1 = 52.6%
• CCN(c1cc(-c2ccc(CN3CCOCC3)cc2)cc(C(=O)NCc2c(C)cc(C)[nH]c2=O)c1C)C1CCOCC1 + NC1CC1c1ccc(-c2cccc(O)c2)cc1 = 94.2%
• O=C(C=Cc1cccc(S(=O)(=O)Nc2ccccc2)c1)NO + NC1CCC(NC2CC2c2ccccc2)CC1 = 9.06%
• Nc1ccccc1NC(=O)c1ccc(CNC(=O)OCc2cccnc2)cc1 + NC1CC1c1ccc(-c2cccc(O)c2)cc1 = 48.3%
• CCN(c1cc(-c2ccc(CN3CCOCC3)cc2)cc(C(=O)NCc2c(C)cc(C)[nH]c2=O)c1C)C1CCOCC1 + NC1CCC(NC2CC2c2ccccc2)CC1 = 92.8%
• NS(=O)(=O)OCC1CC(n2ccc3c(NC4CCc5ccccc54)ncnc32)CC1O (stereo not given) + NC1CC1c1ccc(-c2cccc(O)c2)cc1 = 55%
• NS(=O)(=O)OCC1CC(n2ccc3c(NC4CCc5ccccc54)ncnc32)CC1O (stereo not given) + NC1CCC(NC2CC2c2ccccc2)CC1 = 52.3%
• O=C(C=Cc1cccc(S(=O)(=O)Nc2ccccc2)c1)NO + NC1CC1c1ccc(-c2cccc(O)c2)cc1 = 5.63%
• COc1cc(C2c3cc4c(cc3C(OC3OC5COC(C)OC5C(O)C3O)C3COC(=O)C23)OCO4)cc(OC)c1O (stereo not given) + NC1CC1c1ccc(-c2cccc(O)c2)cc1 = 100%
• COc1cc(C2c3cc4c(cc3C(OC3OC5COC(C)OC5C(O)C3O)C3COC(=O)C23)OCO4)cc(OC)c1O (stereo not given) + NC1CCC(NC2CC2c2ccccc2)CC1 = 98.3%
